# Read-out: Vascular cell adhesion molecule 1 (VCAM1), VCAM1 (gene 7412)
# assay remarks: BSK_hDFCGF_VCAM1: BioMAP Diversity Plus: hDFCGF Assay for Vascular cell adhesion molecule 1 (VCAM1) Biomarker Activity (AID 2283065)
# condition context: primary human foreskin fibroblasts; actives raise or lower the signal
The source made the active and inactive calls. The calls were made as follows: active = hit-call score of the fitted dose curve at least 0.9, where 1 is the maximum; inactive = score below 0.9.
Classes used: active, inactive

[[record]]
compound = "COC(=O)N(OC)c1ccccc1COc1ccn(-c2ccc(Cl)cc2)n1"
group = "inactive"

[[record]]
compound = "COc1nc(C)nc(NC(=O)NS(=O)(=O)c2ccccc2Cl)n1"
group = "inactive"

[[record]]
compound = "C=CCC1=C(C)C(OC(=O)C2C(C=C(C)C)C2(C)C)CC1=O (stereo unspecified)"
group = "active"

[[record]]
compound = "COc1nc(C)nc(NC(=O)NS(=O)(=O)c2ccccc2CCC(F)(F)F)n1"
group = "inactive"

[[record]]
compound = "CCCC1COC(Cn2cncn2)(c2ccc(Cl)cc2Cl)O1 (stereo unspecified)"
group = "inactive"

[[record]]
compound = "Fc1ccc(Oc2ccnc3cc(Cl)cc(Cl)c23)cc1"
group = "active"

[[record]]
compound = "CN(C)C(=S)SSC(=S)N(C)C"
group = "active"

[[record]]
compound = "O=C(O)c1nc(Cl)ccc1Cl"
group = "inactive"

[[record]]
compound = "C=CCC1=C(C)[C@@H](OC(=O)[C@@H]2[C@@H](C=C(C)C)C2(C)C)CC1=O"
group = "active"

[[record]]
compound = "CS/C(C)=N/OC(=O)N(C)SN(C)C(=O)O/N=C(\\C)SC"
group = "inactive"

[[record]]
compound = "O=C(Nc1ccccc1)Nc1ccnc(Cl)c1"
group = "inactive"

[[record]]
compound = "CCOc1cc(Oc2ccc(C(F)(F)F)cc2Cl)ccc1[N+](=O)[O-]"
group = "inactive"

[[record]]
compound = "Cc1cc(Cl)ccc1OCC(=O)O"
group = "inactive"

[[record]]
compound = "CCc1nn(C)c(C(=O)NCc2ccc(C(C)(C)C)cc2)c1Cl"
group = "active"

[[record]]
compound = "CO/C=C(/C(=O)OC)c1ccccc1Oc1cc(Oc2ccccc2C#N)ncn1"
group = "inactive"

[[record]]
compound = "CC1COC(Cn2cncn2)(c2ccc(Oc3ccc(Cl)cc3)cc2Cl)O1 (stereo unspecified)"
group = "active"

[[record]]
compound = "Oc1ccccc1-c1ccccc1"
group = "inactive"

[[record]]
compound = "C#CCOS(=O)OC1CCCCC1Oc1ccc(C(C)(C)C)cc1 (stereo unspecified)"
group = "active"

[[record]]
compound = "CC(Oc1ccc(Cl)cc1Cl)C(=O)O (stereo unspecified)"
group = "inactive"

[[record]]
compound = "COc1cnc(OC)n2nc(NS(=O)(=O)c3c(OCC(F)F)cccc3C(F)(F)F)nc12"
group = "inactive"

[[record]]
compound = "OC(c1ccc(Cl)cc1)(c1cncnc1)c1ccccc1Cl (stereo unspecified)"
group = "inactive"

